# Tested on: CPG-c-myc (DNA, G4) TGGGGAGGGTGGGGAGGGTGGGGAAGGTGGGGA
# Test summary: G4-CPG affinity chromatography, UV
# Settings: 50 mM KCl; 10% DMSO, 10% ethanol; 60 µM compound loaded; error ±2%
Property label: Bound ligand (%)

> print(dat)
                  compound.structure.string                                    system  observed.value
1  C[n+]1ccc(C#Cc2cnc3n4ccnc4n4c(C#Cc5cc[n+](C)cc5)cnc4n23)cc1  CPG-c-myc (DNA, G4) TGGGGAGGGTGGGGAGGGTGGGGAAGGTGGGGA             100
2  C[n+]1ccc(C#Cc2cnc3n4ccnc4n4ccnc4n23)cc1  CPG-c-myc (DNA, G4) TGGGGAGGGTGGGGAGGGTGGGGAAGGTGGGGA              88
3  C[n+]1ccc(C#Cc2cnc3n2c2ncc(C#Cc4cc[n+](C)cc4)n2c2ncc(C#Cc4cc[n+](C)cc4)n32)cc1  CPG-c-myc (DNA, G4) TGGGGAGGGTGGGGAGGGTGGGGAAGGTGGGGA              90
4  C[n+]1ccccc1C#Cc1cnc2n3ccnc3n3c(C#Cc4cccc[n+]4C)cnc3n12  CPG-c-myc (DNA, G4) TGGGGAGGGTGGGGAGGGTGGGGAAGGTGGGGA              84
5  C[n+]1ccccc1C#Cc1cnc2n1c1ncc(C#Cc3cccc[n+]3C)n1c1ncc(C#Cc3cccc[n+]3C)n21  CPG-c-myc (DNA, G4) TGGGGAGGGTGGGGAGGGTGGGGAAGGTGGGGA              99
6    C[n+]1ccccc1C#Cc1cnc2n3ccnc3n3ccnc3n12  CPG-c-myc (DNA, G4) TGGGGAGGGTGGGGAGGGTGGGGAAGGTGGGGA              85

====

# System: CPG-ds27 (DNA, hairpin) CGCGAATTCGCGTTTCGCGAATTCGCG
# Test summary: G4-CPG affinity chromatography, UV
# Settings: 50 mM KCl; 10% DMSO, 10% ethanol; 60 µM compound loaded; error ±2%
Property label: Bound ligand (%)

# example entries with known answers
> print(dat)
                  compound.structure.string    property.label  observed.value
1    C[n+]1ccccc1C#Cc1cnc2n3ccnc3n3ccnc3n12  Bound ligand (%)              10
2  C[n+]1ccccc1C#Cc1cnc2n3ccnc3n3c(C#Cc4cccc[n+]4C)cnc3n12  Bound ligand (%)              39
3  C[n+]1ccc(C#Cc2cnc3n4ccnc4n4c(C#Cc5cc[n+](C)cc5)cnc4n23)cc1  Bound ligand (%)              40

I: C[n+]1ccc(C#Cc2cnc3n2c2ncc(C#Cc4cc[n+](C)cc4)n2c2ncc(C#Cc4cc[n+](C)cc4)n32)cc1
II: C[n+]1ccc(C#Cc2cnc3n4ccnc4n4ccnc4n23)cc1
input: Consider entries I and II . Which has the numerically lower Bound ligand (%)? Indicate which entry you chose by stating its label.
output: II
(II: 15%, I: 50%)

====

# System: CPG-tel26 (DNA, G4) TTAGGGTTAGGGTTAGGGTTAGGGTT
# Test summary: G4-CPG affinity chromatography, UV
# Settings: 50 mM KCl; 10% DMSO, 10% ethanol; 60 µM compound loaded; error ±2%
Property label: Bound ligand (%)

> print(dat)
                  compound.structure.string                                    system    property.label  observed.value
1  C[n+]1ccccc1C#Cc1cnc2n1c1ncc(C#Cc3cccc[n+]3C)n1c1ncc(C#Cc3cccc[n+]3C)n21  CPG-tel26 (DNA, G4) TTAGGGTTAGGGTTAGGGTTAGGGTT  Bound ligand (%)              89
2  C[n+]1ccc(C#Cc2cnc3n2c2ncc(C#Cc4cc[n+](C)cc4)n2c2ncc(C#Cc4cc[n+](C)cc4)n32)cc1  CPG-tel26 (DNA, G4) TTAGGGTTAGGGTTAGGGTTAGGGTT  Bound ligand (%)              75
3  C[n+]1ccc(C#Cc2cnc3n4ccnc4n4ccnc4n23)cc1  CPG-tel26 (DNA, G4) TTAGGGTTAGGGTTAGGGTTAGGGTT  Bound ligand (%)              66
4    C[n+]1ccccc1C#Cc1cnc2n3ccnc3n3ccnc3n12  CPG-tel26 (DNA, G4) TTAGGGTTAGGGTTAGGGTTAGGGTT  Bound ligand (%)              72
5  C[n+]1ccc(C#Cc2cnc3n4ccnc4n4c(C#Cc5cc[n+](C)cc5)cnc4n23)cc1  CPG-tel26 (DNA, G4) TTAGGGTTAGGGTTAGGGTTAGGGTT  Bound ligand (%)              79
6  C[n+]1ccccc1C#Cc1cnc2n3ccnc3n3c(C#Cc4cccc[n+]4C)cnc3n12  CPG-tel26 (DNA, G4) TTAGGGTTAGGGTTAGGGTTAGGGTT  Bound ligand (%)              74
